- Tested on: MCF7 breast
- ASSAY EXPLANATION: NCI-60 one-dose screen, 48 h
- MEASUREMENT CONDITIONS: 10 µM unless noted
- Experimental: Growth inhibition of the MCF7 human tumor cell line is measured as a screen for anti-cancer activity. Cells are grown in 96 well plates and exposed to the test compound for 48 hours. Compounds are tested at a single concentration, which is 10^-5 M for most compounds. The reported endpoint is percent growth (GI% or GIPRCNT), where numbers from 0 - 100% represent growth inhibition, and numbers from -100% - 0 represent cell death. For example, a value of 40 represents 60% growth inhibition. […]
Compounds without any hit were thinned out: in the full panel of roughly 83,000, 20% have a hit. The source made the active and inactive calls. How the source made its calls: active means growth percent below 10; inactive means the rest.
# output must be one of YES for active, NO for inactive

Query: Dear all, I need the recorded test outcome for O=C(NN1C(=O)/C(=C/C=C/c2ccc([N+](=O)[O-])o2)SC1=S)c1ccc([N+](=O)[O-])cc1 , thank you.
Response: YES

Query: Dear all, I need the recorded test outcome for Nc1cc(-c2c[nH]c3ccc(F)cc23)nc2cc(-c3c[nH]c4ccccc34)nn12 , thank you.
Response: YES

Query: Dear all, I need the recorded test outcome for COC(=O)c1cc(C(C)=O)n2c3ccccc3c3ccccc3c12 , thank you.
Response: NO

Query: Dear all, I need the recorded test outcome for COc1ccc(-c2cc(-c3cc(C(C)C)c(O)cc3C)nn2-c2ccc(S(N)(=O)=O)cc2)cc1 , thank you.
Response: NO

Query: Dear all, I need the recorded test outcome for COc1ccc2[nH]c(=O)c(CSc3ccccc3Nc3nccc(-c4ccc(C(F)(F)F)cc4)n3)cc2c1 , thank you.
Response: YES

Query: Dear all, I need the recorded test outcome for CCCN(CCC)S(=O)(=O)c1ccc(C(=O)O)cc1.CCCN(CCC)S(=O)(=O)c1ccc(C(=O)O)cc1.[Cl][Pt+2][Cl].[NH2-].[NH2-] , thank you.
Response: YES

Query: Dear all, I need the recorded test outcome for COc1c(F)ccc(C(=O)Nc2ccc3nc(NC(=O)C4CCCN(S(=O)(=O)c5ccc(C(C)(C)C)cc5)C4)sc3c2)c1F (stereo not drawn) , thank you.
Response: NO

Query: Dear all, I need the recorded test outcome for Nc1nn2c(-c3cc4cc(Br)ccc4oc3=O)ccnc2c1N=Nc1ccc(S(N)(=O)=O)cc1 , thank you.
Response: NO

Query: Dear all, I need the recorded test outcome for Cc1cn(-c2cc(NC(=O)c3ccc(C)c(-n4cc(-c5cnc6cccnn56)nn4)c3)cc(C(F)(F)F)c2)cn1 , thank you.
Response: NO

Query: Dear all, I need the recorded test outcome for COc1ccc2c(c1)C(Sc1ccc(F)cc1)c1c(nc(N)c(C#N)c1N)O2 (stereo not drawn) , thank you.
Response: NO

Query: Dear all, I need the recorded test outcome for Cc1cc(C2(c3cc(C)c(OCC(O)CNc4c(C)n(C)n(-c5ccccc5)c4=O)cc3C(C)C)OC(=O)c3ccccc32)c(C(C)C)cc1OCC(O)CNc1c(C)n(C)n(-c2ccccc2)c1=O (stereo not drawn) , thank you.
Response: NO

Query: Dear all, I need the recorded test outcome for CCN1CCN(Cc2ccc(C(=O)Nc3cccc(Nc4ccc5c(OC)cccc5n4)c3)cc2C(F)(F)F)CC1 , thank you.
Response: YES

Query: Dear all, I need the recorded test outcome for O=C(CSc1nnc(-c2ccc(-c3nc4ccccc4[nH]3)cc2)o1)Nc1ccc(Br)cc1 , thank you.
Response: YES

Query: Dear all, I need the recorded test outcome for CCCCCCCOc1ccc(S(=O)(=O)Nc2ccc(C)c(F)c2C(=O)O)cc1 , thank you.
Response: NO

Query: Dear all, I need the recorded test outcome for O=C(N/N=C/c1ccc(Cl)cc1)c1ccc(OCc2nc3ccc(Cl)cc3[nH]2)cc1 , thank you.
Response: YES

Query: Dear all, I need the recorded test outcome for N#Cc1ccc(C(=O)NNC(=O)CSc2nc3sc4c(c3c(=O)n2-c2ccc(Cl)cc2)CCCC4)cc1 , thank you.
Response: NO

Query: Dear all, I need the recorded test outcome for Cc1nn(-c2ccccc2)c2ncn(CC(=O)N/N=C/c3ccccc3O)c(=O)c12 , thank you.
Response: NO

Query: Dear all, I need the recorded test outcome for COc1ccc(N=Nc2c(N)nn3c(-c4ccc([N+](=O)[O-])cc4)ccnc23)cc1 , thank you.
Response: NO
